# TESTED SYSTEM: T1, Human CD3 epsilon (CD3epsilon) protein (His Tag) (human, UniProt P07766 23-126)
# T1 construct: extracellular domain; Bought protein; also called recombinant human CD3epsilon ECD; not shown: His tag
# T1 sequence (P07766 23-126): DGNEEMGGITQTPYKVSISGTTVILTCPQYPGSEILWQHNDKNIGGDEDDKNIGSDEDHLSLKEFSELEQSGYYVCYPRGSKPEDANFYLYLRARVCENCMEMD
# TEST DETAILS: ELISA, antigen coated on plate
RECORDED METRIC: EC50 (nM)

BINDER	UNITS LABEL	RECORDED RESULT
WBP3311_2.166.48 (antibody, IgG2a, V domains shown, Mouse monoclonal antibody from hybridoma; also called W3311-2.166.48; W3311_2.166.48) VH: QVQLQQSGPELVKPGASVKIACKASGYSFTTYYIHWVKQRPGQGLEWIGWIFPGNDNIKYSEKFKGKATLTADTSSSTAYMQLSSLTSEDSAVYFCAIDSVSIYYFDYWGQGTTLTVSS VL: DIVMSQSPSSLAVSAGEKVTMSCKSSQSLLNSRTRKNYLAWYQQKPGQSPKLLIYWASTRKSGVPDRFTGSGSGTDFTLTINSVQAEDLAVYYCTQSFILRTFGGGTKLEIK	nM	0.049
WBP3311_2.306.4 (antibody, IgG2b, V domains shown, Mouse monoclonal antibody from hybridoma; also called W3311-2.306.4; W3311-2.306.4-mIgG2bK) VH: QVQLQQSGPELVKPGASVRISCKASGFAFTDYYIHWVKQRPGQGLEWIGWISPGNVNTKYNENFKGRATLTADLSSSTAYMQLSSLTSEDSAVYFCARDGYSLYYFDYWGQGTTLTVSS VL: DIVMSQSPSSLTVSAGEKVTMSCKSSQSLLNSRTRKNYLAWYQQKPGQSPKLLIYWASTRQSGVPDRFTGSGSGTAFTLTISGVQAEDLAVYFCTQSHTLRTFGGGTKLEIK	nM	0.012
